TEST_TARGET: hERG channel (Homo sapiens)
Construct: expressed in transfected cells; host or cells: CHO (Chinese hamster ovary), CHOhERG
Sequence (Q12809 whole entry): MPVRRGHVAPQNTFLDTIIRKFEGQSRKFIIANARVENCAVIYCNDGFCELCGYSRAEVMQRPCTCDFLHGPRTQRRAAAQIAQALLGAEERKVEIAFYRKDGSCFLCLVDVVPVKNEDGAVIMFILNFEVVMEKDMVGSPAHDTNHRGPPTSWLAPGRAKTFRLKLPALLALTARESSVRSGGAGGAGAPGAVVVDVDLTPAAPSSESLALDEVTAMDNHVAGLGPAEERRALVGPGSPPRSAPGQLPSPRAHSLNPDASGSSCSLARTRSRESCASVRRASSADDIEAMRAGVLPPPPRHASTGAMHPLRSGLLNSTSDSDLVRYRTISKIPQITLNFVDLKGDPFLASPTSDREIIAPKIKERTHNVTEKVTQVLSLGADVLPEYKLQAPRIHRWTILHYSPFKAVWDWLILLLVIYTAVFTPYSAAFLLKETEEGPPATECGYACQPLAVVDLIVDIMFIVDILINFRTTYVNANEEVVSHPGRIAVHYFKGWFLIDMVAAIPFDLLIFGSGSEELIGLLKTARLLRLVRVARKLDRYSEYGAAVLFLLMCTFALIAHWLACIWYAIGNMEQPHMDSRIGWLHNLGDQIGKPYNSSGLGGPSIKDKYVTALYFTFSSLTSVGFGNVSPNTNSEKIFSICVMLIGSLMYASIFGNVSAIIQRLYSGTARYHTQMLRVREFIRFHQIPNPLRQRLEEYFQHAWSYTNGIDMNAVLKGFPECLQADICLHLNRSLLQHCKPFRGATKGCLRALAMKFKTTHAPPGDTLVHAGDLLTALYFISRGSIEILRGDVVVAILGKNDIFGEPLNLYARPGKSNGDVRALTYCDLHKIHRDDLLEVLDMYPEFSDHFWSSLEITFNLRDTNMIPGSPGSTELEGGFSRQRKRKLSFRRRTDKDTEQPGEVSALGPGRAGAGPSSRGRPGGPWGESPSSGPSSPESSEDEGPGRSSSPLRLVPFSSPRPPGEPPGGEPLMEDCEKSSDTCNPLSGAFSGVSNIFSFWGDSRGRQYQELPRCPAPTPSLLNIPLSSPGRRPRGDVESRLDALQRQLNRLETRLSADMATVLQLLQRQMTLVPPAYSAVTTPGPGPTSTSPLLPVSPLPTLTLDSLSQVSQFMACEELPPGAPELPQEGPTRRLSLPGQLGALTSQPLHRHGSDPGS
ASSAY_DETAILS: hERG channel inhibition assay (patch-clamp, CHOhERG cells)
Type: cell-based
TEST_PARAMETERS: human, CHO cells stably expressing hERG (CHOhERG); CHOhERG cells, whole-cell patch-clamp
PROPERTY: IC20 (µM)
All answers are understood in µM, so give the number only.

The compound identified as C[C@@H]1CN(c2ccc(C#N)c3ncccc23)C[C@@H]2CN(Cc3ccc(N4CCNCC4)nc3)CCN21 registered its IC20 at 8.63

The compound identified as [2H]c1ccc2c(N3C[C@@H]4CN(c5ncc(N6CC(C)(N)C6)cc5C)CCN4[C@@H](C)C3)ccc(C#N)c2n1 registered its IC20 at 7.66

The compound identified as C[C@@H]1CN(c2ccc(C#N)c3ncccc23)C[C@@H]2CN(c3nccc(N4CCNCC4)n3)CCN21 registered its IC20 at 4.53
